Biological target: hSK2 (Homo sapiens)
Test: 86Rb+ efflux assay for compound activity towards hSK channels
Assay type: cell-based
Conditions: 86Rb+ efflux stimulated with calcium ionophore; drug 0.01 to 30 μM in EBSS; read-out: hSK2 Inhibitory Activity
METRIC: IC50

Fc1ccc(Nc2nc(-c3ccccn3)cs2)nc1    1000 to 30000 nM
Brc1ccc(Nc2nc(-c3nccs3)cs2)nc1    1000 to 30000 nM
C=C(C)c1ccc(Nc2nc(-c3cnccn3)cs2)nc1    100 to 1000 nM

Can you share its IC50? I mean this compound: `CN1CCN(c2ccc(Nc3nc(-c4cnccn4)cs3)nc2)C(=O)C1`
1000 to 30000 nM

Field request: IC50 | item: `O=C1CCCN1c1ccc(Nc2nc(-c3cnccn3)cs2)nc1`
< 30 nM

Which IC50 is listed for `Cc1cnc(Nc2nc(-c3ccccn3)cs2)c(Br)c1` ?
1000 to 30000 nM

Tell me the measured IC50 of `Cc1ccnc(Nc2nc(-c3cc(C)ccn3)cs2)c1` , please.
30 to 100 nM

Entry under review: `Cc1ccnc(Nc2nc(-c3c(C)nc4ncccn34)cs2)c1` . Reported IC50?
1000 to 30000 nM
